Ref: paper PMC12920294

- MEASUREMENT_PROTOCOL: in vivo
- EXPERIMENTAL_CONDITIONS: CD1 nude, mouse, 0.5 nmol/mouse, total radioactivity, Brain uptake

{"COMPOUND": "Cc1ccc(CCCC(=O)NCCOCCOCCOCCOCCOCCC(=O)NCCCC[C@H](NC(=O)CN2CCN(CC(=O)O)CCN(CC(=O)O)CCN(CC(=O)O)CC2)C(=O)N[C@@H](CC(=O)O)C(=O)N[C@@H](CC2CCCCC2)C(=O)N[C@@H](Cc2ccccc2)C(=O)N[C@H](CO)C(=O)N[C@H](CCCNC(=N)N)C(=O)N[C@@H](Cc2ccc(O)cc2)C(=O)N[C@@H](CC(C)C)C(=O)N[C@@H](Cc2c[nH]c3ccccc23)C(=O)N[C@@H](CO)C(N)=O)cc1 [[^177Lu]Lu-uPAR-18, metal not drawn]", "tissue uptake at 4 h / %ID/g": 0.08}

----------
- MEASUREMENT_PROTOCOL: in vivo
- EXPERIMENTAL_CONDITIONS: CD1 nude, mouse, 0.5 nmol/mouse, total radioactivity, Salivary glands uptake

{"COMPOUND": "Cc1ccc(CCCC(=O)NCCOCCOCCOCCOCCC(=O)NCCCC[C@H](NC(=O)CN2CCN(CC(=O)O)CCN(CC(=O)O)CCN(CC(=O)O)CC2)C(=O)N[C@@H](CC(=O)O)C(=O)N[C@@H](CC2CCCCC2)C(=O)N[C@@H](Cc2ccccc2)C(=O)N[C@H](CO)C(=O)N[C@H](CCCNC(=N)N)C(=O)N[C@@H](Cc2ccc(O)cc2)C(=O)N[C@@H](CC(C)C)C(=O)N[C@@H](Cc2c[nH]c3ccccc23)C(=O)N[C@@H](CO)C(N)=O)cc1 [[^177Lu]Lu-uPAR-11, metal not drawn]", "UNIT_LABEL": "%ID/g", "tissue uptake at 1 h": 2.9}

----------
- MEASUREMENT_PROTOCOL: in vivo
- EXPERIMENTAL_CONDITIONS: CD1 nude, mouse, 0.5 nmol/mouse, total radioactivity, Brain uptake
ENDPOINT: tissue uptake at 24 h

{"MOLECULE": "Cc1ccc(CCCC(=O)NCCOCCOCCOCCOCCC(=O)NCCCC[C@H](NC(=O)CN2CCN(CC(=O)O)CCN(CC(=O)O)CCN(CC(=O)O)CC2)C(=O)N[C@@H](CC(=O)O)C(=O)N[C@@H](CC2CCCCC2)C(=O)N[C@@H](Cc2ccccc2)C(=O)N[C@H](CO)C(=O)N[C@H](CCCNC(=N)N)C(=O)N[C@@H](Cc2ccc(O)cc2)C(=O)N[C@@H](CC(C)C)C(=O)N[C@@H](Cc2c[nH]c3ccccc23)C(=O)N[C@@H](CO)C(N)=O)cc1 [[^177Lu]Lu-uPAR-11, metal not drawn]", "RESULT": "< 0.03 %ID/g"}
{"MOLECULE": "Cc1ccc(CCCC(=O)NCCOCCOCCOCCOCCC(=O)NC[C@H](NC(=O)CN2CCN(CC(=O)O)CCN(CC(=O)O)CCN(CC(=O)O)CC2)C(=O)N[C@@H](CC(=O)O)C(=O)N[C@@H](CC2CCCCC2)C(=O)N[C@@H](Cc2ccccc2)C(=O)N[C@H](CO)C(=O)N[C@H](CCCNC(=N)N)C(=O)N[C@@H](Cc2ccc(O)cc2)C(=O)N[C@@H](CC(C)C)C(=O)N[C@@H](Cc2c[nH]c3ccccc23)C(=O)N[C@@H](CO)C(N)=O)cc1 [[^177Lu]Lu-uPAR-14, metal not drawn]", "RESULT": "< 0.03 %ID/g"}
{"MOLECULE": "Cc1ccc(CCCC(=O)NCCOCCOCCOCCOCCOCCC(=O)NCCCC[C@H](NC(=O)CN2CCN(CC(=O)O)CCN(CC(=O)O)CCN(CC(=O)O)CC2)C(=O)N[C@@H](CC(=O)O)C(=O)N[C@@H](CC2CCCCC2)C(=O)N[C@@H](Cc2ccccc2)C(=O)N[C@H](CO)C(=O)N[C@H](CCCNC(=N)N)C(=O)N[C@@H](Cc2ccc(O)cc2)C(=O)N[C@@H](CC(C)C)C(=O)N[C@@H](Cc2c[nH]c3ccccc23)C(=O)N[C@@H](CO)C(N)=O)cc1 [[^177Lu]Lu-uPAR-18, metal not drawn]", "RESULT": "< 0.03 %ID/g"}
